Kindly supply the reported pKa2 values for the records listed here.
Target Or Test System: Acetylcholine receptor subunit alpha (Homo sapiens)
Condition Description: TE-671
Description: Proteolytic properties against human muscle type nicotinic Acetylcholine receptor(nAchr) from TE671 cells, expressed as acidity constant (pKa2)
// return just the number, without any unit appended

Req: Provide pKa2, system Acetylcholine receptor subunit alpha (Homo sapiens), entry CCCC(=O)NC(Cc1ccc(O)cc1)C(=O)NCCCNCCCCCCCCN (stereo unspecified)
Resp: 10.4

Req: Provide pKa2, system Acetylcholine receptor subunit alpha (Homo sapiens), entry CCCC(=O)NC(Cc1ccc(O)cc1)C(=O)NCCCCCCCCNCCCN (stereo unspecified)
Resp: 10.2

Req: Provide pKa2, system Acetylcholine receptor subunit alpha (Homo sapiens), entry CCCC(=O)NC(Cc1ccc(O)cc1)C(=O)NCCCNCCCCOCCCN (stereo unspecified)
Resp: 10.2

Req: Provide pKa2, system Acetylcholine receptor subunit alpha (Homo sapiens), entry CCCC(=O)NC(Cc1ccc(O)cc1)C(=O)NCCCOCCCCNCCCN (stereo unspecified)
Resp: 10.3

Req: Provide pKa2, system Acetylcholine receptor subunit alpha (Homo sapiens), entry CCCC(=O)NC(Cc1ccc(O)cc1)C(=O)NCCCCCCCCCCCCN (stereo unspecified)
Resp: 11.3

Req: Provide pKa2, system Acetylcholine receptor subunit alpha (Homo sapiens), entry CCCC(=O)NC(Cc1ccc(O)cc1)C(=O)NCCCOCCCCOCCCN (stereo unspecified)
Resp: 10.9

###

Target Or Test System: Acetylcholine receptor subunit alpha (Homo sapiens)
Condition Description: TE-671
Description: Proteolytic properties against human muscle type nicotinic Acetylcholine receptor(nAchr) from TE671 cells, expressed as acidity constant (pKa1)
Property Measured: pKa1
// return just the number, without any unit appended

Req: Please report the measured pKa1 for CCCC(=O)NC(Cc1ccc(O)cc1)C(=O)NCCCNCCCCCCCCN (centres undefined)
Resp: 9.71

Req: Please report the measured pKa1 for CCCC(=O)NC(Cc1ccc(O)cc1)C(=O)NCCCOCCCCNCCCN (centres undefined)
Resp: 9.23

Req: Please report the measured pKa1 for CCCC(=O)NC(Cc1ccc(O)cc1)C(=O)NCCCNCCCCOCCCN (centres undefined)
Resp: 9.47

Req: Please report the measured pKa1 for CCCC(=O)NC(Cc1ccc(O)cc1)C(=O)NCCCCCCCCNCCCN (centres undefined)
Resp: 9.32

Source: ChEMBL document CHEMBL1132165
